# study.target: Nav 1.7 (Homo sapiens (Human), UniProt Q15858)
# Sequence (Q15858 whole entry): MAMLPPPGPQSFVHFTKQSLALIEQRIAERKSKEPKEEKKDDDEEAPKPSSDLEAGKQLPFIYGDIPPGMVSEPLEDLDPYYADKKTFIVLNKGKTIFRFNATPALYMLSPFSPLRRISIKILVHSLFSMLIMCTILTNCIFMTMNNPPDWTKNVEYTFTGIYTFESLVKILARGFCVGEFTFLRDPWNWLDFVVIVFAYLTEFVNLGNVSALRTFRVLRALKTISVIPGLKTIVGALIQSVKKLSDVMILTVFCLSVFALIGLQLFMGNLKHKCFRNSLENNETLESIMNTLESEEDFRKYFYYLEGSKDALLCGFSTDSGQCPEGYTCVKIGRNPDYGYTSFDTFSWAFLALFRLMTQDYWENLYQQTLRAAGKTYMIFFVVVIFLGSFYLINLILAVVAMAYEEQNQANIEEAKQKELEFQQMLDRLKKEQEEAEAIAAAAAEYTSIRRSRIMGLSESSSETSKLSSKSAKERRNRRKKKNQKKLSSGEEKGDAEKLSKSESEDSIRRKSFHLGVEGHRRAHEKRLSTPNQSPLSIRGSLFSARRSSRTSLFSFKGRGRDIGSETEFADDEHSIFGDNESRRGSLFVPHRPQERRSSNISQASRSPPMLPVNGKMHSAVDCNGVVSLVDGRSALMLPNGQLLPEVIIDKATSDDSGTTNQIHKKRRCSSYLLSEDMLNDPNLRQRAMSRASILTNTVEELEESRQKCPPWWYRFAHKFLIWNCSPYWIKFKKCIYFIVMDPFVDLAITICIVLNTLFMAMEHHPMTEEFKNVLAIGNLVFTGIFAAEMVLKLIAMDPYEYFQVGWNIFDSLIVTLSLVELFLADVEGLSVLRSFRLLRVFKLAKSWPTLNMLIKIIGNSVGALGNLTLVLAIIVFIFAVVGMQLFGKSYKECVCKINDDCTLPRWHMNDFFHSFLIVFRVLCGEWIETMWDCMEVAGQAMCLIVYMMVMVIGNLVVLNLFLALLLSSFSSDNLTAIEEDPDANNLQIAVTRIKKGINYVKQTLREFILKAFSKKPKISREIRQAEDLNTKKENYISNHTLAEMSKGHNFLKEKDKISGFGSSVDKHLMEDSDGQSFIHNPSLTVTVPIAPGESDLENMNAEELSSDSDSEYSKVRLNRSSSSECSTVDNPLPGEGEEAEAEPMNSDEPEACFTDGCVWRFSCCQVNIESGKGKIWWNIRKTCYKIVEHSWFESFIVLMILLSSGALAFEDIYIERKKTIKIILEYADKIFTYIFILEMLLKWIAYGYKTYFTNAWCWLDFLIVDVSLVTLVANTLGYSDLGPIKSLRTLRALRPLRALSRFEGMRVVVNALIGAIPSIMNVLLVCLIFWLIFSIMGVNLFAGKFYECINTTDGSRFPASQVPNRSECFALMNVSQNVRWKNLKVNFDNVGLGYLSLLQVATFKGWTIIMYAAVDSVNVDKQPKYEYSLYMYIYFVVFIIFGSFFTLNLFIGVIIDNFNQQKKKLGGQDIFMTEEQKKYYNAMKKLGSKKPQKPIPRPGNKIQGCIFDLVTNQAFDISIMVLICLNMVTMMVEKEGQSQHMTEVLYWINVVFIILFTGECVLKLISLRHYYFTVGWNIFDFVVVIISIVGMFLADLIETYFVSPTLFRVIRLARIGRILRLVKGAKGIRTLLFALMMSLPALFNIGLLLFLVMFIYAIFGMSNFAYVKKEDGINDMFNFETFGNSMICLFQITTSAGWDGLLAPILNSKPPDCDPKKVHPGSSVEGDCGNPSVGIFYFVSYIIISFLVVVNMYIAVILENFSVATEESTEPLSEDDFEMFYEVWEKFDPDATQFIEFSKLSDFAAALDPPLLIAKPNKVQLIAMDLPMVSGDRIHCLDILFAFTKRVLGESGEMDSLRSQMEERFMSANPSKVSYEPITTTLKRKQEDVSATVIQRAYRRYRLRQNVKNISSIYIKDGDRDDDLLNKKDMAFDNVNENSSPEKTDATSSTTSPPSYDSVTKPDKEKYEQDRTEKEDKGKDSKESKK
# protocol.summary: in-vitro Nav 1.7 PX (IC50)
# Format: cell-based
# assay.context: in-vitro Nav 1.7 PX data
property: pIC50
One number for each entry, as −log10 of the molar value.

COc1cc(-c2ccc(Cl)cc2)ccc1-n1c(=O)ccc2cc(S(=O)(=O)Nc3cc(C)ncn3)ccc21
7.27
COc1cc(-c2cccc(C)c2)ccc1-n1c(=O)ccc2cc(S(=O)(=O)Nc3ncc(F)cn3)ccc21
7.40
COc1cc(-c2ccc(Cl)c(C)c2)c(F)cc1-n1c(=O)ccc2cc(S(=O)(=O)Nc3cccnn3)ccc21 (atropisomer, axis not shown; (P))
7.92

Consider the following items and state reported pIC50 for each.
1. COc1ccc(-c2cc(OC)c(-n3c(=O)ccc4cc(S(=O)(=O)Nc5ccon5)ccc43)cc2F)c(F)c1
2. COc1ccc(-c2cc(F)cc(Cl)c2)cc1-n1c(=O)ccc2cc(S(=O)(=O)Nc3ccncn3)ccc21 (atropisomer, axis not shown; (P)) [Example 611]
3. COc1cc(Cl)cc(-c2ccc(-n3c(=O)ccc4cc(S(=O)(=O)Nc5ncccn5)ccc43)c(OC)c2)c1
4. COc1cc(Cl)cc(-c2cc(OC)c(-n3c(=O)ccc4cc(S(=O)(=O)Nc5cccnn5)ccc43)cc2F)c1
5. COc1cccc(-c2cc(OC)c(-n3c(=O)ccc4cc(S(=O)(=O)Nc5ccon5)ccc43)cc2F)c1
6. COc1cc(-c2cc(F)cc(Cl)c2)c(F)cc1-n1c(=O)ccc2cc(S(=O)(=O)Nc3cnsn3)ccc21

Given back:
1. 7.66
2. 7.54
3. 7.92
4. 7.85
5. 7.33
6. 8.40

Consider the following items and state reported pIC50 for each.
1. COc1cc(-c2cccc(OC)c2Cl)ccc1-n1c(=O)ccc2cc(S(=O)(=O)Nc3ccon3)ccc21
2. COc1cc(CC(C)(C)C)c(F)cc1-n1c(=O)ccc2cc(S(=O)(=O)Nc3ccon3)ccc21
3. COc1nc(OCC(F)(F)F)c(Cl)cc1-n1c(=O)ccc2cc(S(=O)(=O)Nc3ccon3)ccc21
4. COc1cc(-c2cc(Cl)cnc2OC)c(F)cc1-n1c(=O)ccc2cc(S(=O)(=O)Nc3ccnc(C)n3)ccc21
5. COc1nc(-c2cccc(C)c2)c(Cl)cc1-n1c(=O)ccc2cc(S(=O)(=O)Nc3ccon3)ccc21 [Example 1088]

Given back:
7.06
7.19
6.25
6.95
7.33
